Listing of entries alongside the reported activation.
biological target: 5-hydroxytryptamine receptor 1A (Homo sapiens); assay: agonism at serotonin HTR1A receptor – cell-based, CHO, Ga15 NFAT-bla reporter, primary screen (AID 567); conditions: CHO 5-HT1a Ga15 NFAT-bla reporter, FRET ratio; at 10 µM; active compounds read high; 0% basal, 100% maximal reference agonist;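 further: 0% = DMSO wells and 100% = 5-CT at EC100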
Among all 65,000 compounds or so, about 370 (0.57%) were called active. The sample as a whole holds a higher share of actives than the screen did.

compound | activation
CCN1CCN(Cc2nc3c(c(=O)n(C)c(=O)n3C)n2CC(=O)c2ccccc2)CC1 | -1.47% (inactive)
c1cc(-c2nn[nH]n2)ccc1CN1CCCCC1 | -2.19% (inactive)
COc1ccc(C)cc1NC(=O)c1[nH]c(C)c(C(C)=O)c1C | 43.5% (active)
CCC(=O)c1ccc(OCC(O)CN2C(=O)NC(C)(C)C2=O)cc1 (configuration not stated) | 80.3% (active)
COc1ccc(NC(=O)CN(C)S(=O)(=O)c2ccccc2)cc1OC | -0.21% (inactive)
CC(C)(C)n1nc2c(c1NC(=O)c1ccc(S(=O)(=O)N3CCCC3)cc1)CS(=O)C2 (configuration not stated) | -0.05% (inactive)
COC(=O)c1ccc2c(=O)n(CC3CCCO3)c(=S)[nH]c2c1 (configuration not stated) | 66.3% (active)
CC1CCN(C(=O)Cn2cc(C(=O)c3ccco3)c3ccccc32)CC1 | -0.71% (inactive)
Cn1c(=O)c(=O)n(C)c2cc(S(=O)(=O)NCCc3ccccc3)ccc21 | -2.1% (inactive)
O=C1c2ccncc2C(=O)N1C1CCCCC1 | -3.22% (inactive)
N#CNC1=NCN(CCc2ccccc2)CN1 | -0.74% (inactive)
CCOC(=O)c1c(C)[nH]c(C(=O)NCc2ccccc2OC)c1C | -0.94% (inactive)
